Values compiled from PubChem BioAssay (EPA / NIEHS).

# method: BSK_LPS_PGE2: BioMAP Diversity Plus: LPS Assay for Prostaglandin E2 (PGE2) Biomarker Activity (AID 2283082)
# condition notes: primary human HUVEC with PBMC; actives raise or lower the signal
Calls of active or inactive are those of the source. The calls were made as follows: active = hit-call score of the fitted dose curve at least 0.9, where 1 is the maximum; inactive = score below 0.9.
Response enum: active, inactive

Some solved entries appear below for comparison.
                            compound_smiles     group
0                   O=c1[nH]cc(F)c(=O)[nH]1  inactive
1  Nc1nc(N)c2nc(CNc3ccc(C(=O)N[C@@H](CCC(=O)O)C(=O)O)cc3)cnc2n1  inactive

Dear all, I need the recorded test outcome for COc1ccc2c(c1)c(CC(=O)O)c(C)n2C(=O)c1ccc(Cl)cc1 , thank you. active

* * *

# Read-out: solute carrier (SLC22A1), SLC22A1 (gene 6580)
# method: LTEA_HepaRG_SLC22A1: Life Technologies and Expression Analysis (LTEA) Assay for solute carrier (SLC22A1) using HepaRG (AID 2283524)
# condition notes: mRNA level, 48 h; actives raise or lower the signal
Activity calls are given as the source filed them. The calls were made as follows: active = hit-call score of the fitted dose curve at least 0.9, where 1 is the maximum; inactive = score below 0.9.
Pick one and only one: active, inactive

                 compound_smiles     group
0               Cc1ccc(C)c(O)c1C  inactive
1                     CCCCCCCC=O  inactive
2  CCOc1ccc2c(c1)C(C)=CC(C)(C)N2  inactive
3         CC(=O)OCCOCCOCCOC(C)=O  inactive
4     Oc1ccc2ccccc2c1N=Nc1ccccc1    active

What outcome does the record of this test show for CNCc1cc(F)ccc1Oc1ccc(Cl)c(Cl)c1 ? active

Name the outcome recorded for CCCCCCCCCCCC(=O)OC in the assay. inactive

* * *

# target of assay: Estrogen receptor beta (Homo sapiens)
# method: OT_ER_ERbERb_0480: Odyssey Thera (OT) 8-hour HEK293T Protein-Complementation Assay for Estrogen Receptor-beta/-beta Homodimer (AID 2283357);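 also: active means signal gain over DMSO baseline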
Records with an inconclusive call do not appear. Active and inactive are the calls of the source. Rule for the calls: active = hit-call score of the fitted dose curve at least 0.9, where 1 is the maximum; inconclusive = response in the unintended direction; inactive = score below 0.9.
Tick one outcome: TRUE (active), FALSE (inactive)

Reference set, count: 3
>>> print(df.to_string())
                                   compound  group
0                               CCCCCCCCCCO  FALSE
1                            CCCCCCCCCCCCCO  FALSE
2  Oc1ccc2c(c1)OC[C@@H](N1CCC(O)(c3ccc(F)cc3)CC1)[C@H]2O  FALSE

Given Cc1nc(-c2ccc3c(c2)CCN(CCC2CCC(NC(=O)/C=C/c4ccc(F)cc4)CC2)CC3)no1 (stereo unspecified) , state the outcome it received in this test. FALSE

Hey, what did the test say about NCC1(Cc2noc(=O)[nH]2)CCCCC1 ? FALSE

For O=c1[nH]cc(F)c(=O)[nH]1 , which call appears in the assay record? FALSE

Which outcome did this test record for the compound O=C(N[C@@H](Cc1ccccc1)[C@@H](O)C(=O)N1C[C@@H](O)[C@@H](O)C1)c1cc2cc(Cl)ccc2[nH]1 ? FALSE

Query: recorded result category for Cc1ccc(C)c(C)c1 in this test FALSE

// param item: CCOC(=O)CCC(=O)OCC ; yields the recorded call FALSE

Look up the recorded call for CC(=O)Oc1ccccc1C(=O)O in this test. FALSE

Hey, what did the test say about CCc1c(C(=O)NN2CCCCC2)nn(-c2ccc(Cl)cc2Cl)c1-c1ccc(Br)cc1 ? FALSE

Just curious, what result did Clc1cc(Cl)c(Cl)cc1Cl get here? FALSE

Tell me the assay call for CCCCN(CCCC)CCCC please. FALSE

Status in this test for C1CCC(SSC2CCCCC2)CC1 ? TRUE

Kindly provide the recorded test outcome for the following compound: CCCCCC(=O)O FALSE

What call does the record list for CC(=O)OCCOCCOCCOC(C)=O ? FALSE

Test call, this compound: Nc1nc(N)c2nc(CNc3ccc(C(=O)N[C@@H](CCC(=O)O)C(=O)O)cc3)cnc2n1 FALSE

So what was the verdict on CC1=C(/C=C/C(C)=C/C=C/C(C)=C/CO)C(C)(C)CCC1 in this test? FALSE

Assay result, entry COCCOC[C@H](CC1(C(=O)NC2CCC(C(=O)O)CC2)CCCC1)C(=O)Oc1ccc2c(c1)CCC2 (stereo partly specified) — outcome? FALSE

Given O=C(O)CCCCC(=O)O , state the outcome it received in this test. FALSE

Which outcome was entered for the compound C[Si]1(C)O[Si](C)(C)O[Si](C)(C)O[Si](C)(C)O1 in this test? FALSE
